molecular target: human factor XIa (Homo sapiens)
Sequence (P03951 388-625 limits assumed): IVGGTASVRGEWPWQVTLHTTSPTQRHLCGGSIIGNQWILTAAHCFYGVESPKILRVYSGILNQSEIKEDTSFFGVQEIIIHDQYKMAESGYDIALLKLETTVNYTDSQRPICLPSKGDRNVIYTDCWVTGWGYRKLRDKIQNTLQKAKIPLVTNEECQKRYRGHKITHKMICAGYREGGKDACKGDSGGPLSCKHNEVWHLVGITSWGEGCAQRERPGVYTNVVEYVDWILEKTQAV
Sequence (P03951 19-387 partner limits assumed): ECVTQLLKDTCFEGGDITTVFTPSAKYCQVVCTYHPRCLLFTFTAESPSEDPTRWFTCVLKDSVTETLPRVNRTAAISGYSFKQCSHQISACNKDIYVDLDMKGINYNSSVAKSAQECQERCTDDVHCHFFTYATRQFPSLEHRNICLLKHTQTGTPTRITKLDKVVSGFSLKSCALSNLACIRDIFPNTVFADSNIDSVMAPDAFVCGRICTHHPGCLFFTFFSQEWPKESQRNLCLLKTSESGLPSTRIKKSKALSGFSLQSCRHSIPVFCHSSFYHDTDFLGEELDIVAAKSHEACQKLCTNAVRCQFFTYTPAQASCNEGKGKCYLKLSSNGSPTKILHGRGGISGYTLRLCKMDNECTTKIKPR
pIC50: −log10 of the molar value. Where a name gives a salt, the structure may show the parent alone.
READOUT TYPE: pIC50

>>> result_value("Cc1cc(C(=O)NC2CCC(N(C)C)CC2)ccc1-c1ccc(C[C@H](NC(=O)[C@H]2CC[C@H](CN)CC2)C(=O)Nc2ccc(-c3nc(C(F)(F)C(F)(F)C(F)(F)F)n[nH]3)cc2)cc1 (some centres unmarked) [Example 87, hydrochloride]")
8.55
>>> result_value("Cc1cc(C(=O)N[C@@H]2CCNC2=O)ccc1-c1ccc(C[C@H](NC(=O)[C@H]2CC[C@H](CN)CC2)C(=O)Nc2ccc3cn[nH]c3c2)cc1 [Example 145, hydrochloride]")
8.49
>>> result_value("Cc1cc(C(=O)NC2C3CNCC32)ccc1-c1ccc(C[C@H](NC(=O)C2CCC(CN)CC2)C(=O)Nc2ccc(-c3nn[nH]n3)cc2)cc1 (some centres unmarked) [Example 43, hydrochloride]")
8.48
>>> result_value("COc1cc(C(=O)NC2CCC(N(C)C)CC2)ccc1-c1ccc(C[C@H](NC(=O)[C@H]2CC[C@H](CN)CC2)C(=O)Nc2ccc(-c3nn[nH]n3)cc2)cc1 (some centres unmarked) [Example 67, hydrochloride]")
8.34
>>> result_value("NC[C@H]1CC[C@H](C(=O)N[C@@H](Cc2ccc(-c3ccc(C(=O)NC4CCNCC4)c(Cl)c3)cc2)C(=O)Nc2ccc(-c3nn[nH]n3)cc2)CC1 [Example 122, hydrochloride]")
8.28
